Reference source: ChEMBL document CHEMBL1131509

System: BT-549
assay.summary: in vitro inhibition of breast (BT-549) cancer cell line
Type: functional
reported.conditions: Homo sapiens
Kindly state GI50 for each of the entries shown.
One number for each entry, in µM.

# batch: return GI50 for each of the 8 molecules below
1. CC(O)c1cc2c(s1)C(=O)c1scc(C(C)O)c1C2=O (stereo not drawn)
2. CC(O)c1cc2c(s1)C(=O)c1sccc1C2=O (stereo not drawn)
3. CC(=O)c1cc2c(s1)C(=O)c1ccsc1C2=O
4. CC(=O)OC(C)c1cc2c(s1)C(=O)c1scc(C(C)OC(C)=O)c1C2=O (stereo not drawn)
5. CC(O)c1cc2c(s1)C(=O)c1ccsc1C2=O (stereo not drawn)
6. CC(=O)c1cc2c(s1)C(=O)c1sccc1C2=O
7. CC(=O)c1cc2c(s1)C(=O)c1scc(C(C)=O)c1C2=O
8. CC(=O)OC(C)c1cc2c(s1)C(=O)c1sccc1C2=O (stereo not drawn)

*A*
1: 0.2; 2: 0.035; 3: 0.18; 4: 0.2; 5: 0.078; 6: 0.018; 7: 0.91; 8: 0.28
